Some compounds, each annotated with its measured half-life at 0.4 mg/mL.
assay: In vitro plasma half-life of drug
Type: in vitro ADME, SD rats
stated-conditions: plasma (heparin sodium); SD rat plasma, 37° C.
Numeric only. Scale: s

// known answers, use as guide
| mol-smiles | reported-measurement |
| --- | --- |
| COC(=O)CC[C@@H]1N=C(c2ccccn2)c2cc(Br)ccc2-n2c(SCc3ccncc3)nnc21 | 24.6 |
| COC(=O)CC[C@@H]1N=C(c2ccccc2F)c2cc(Br)ccc2-n2c(S)nnc21 | 104 |
| COC(=O)CC[C@@H]1N=C(c2ccccc2Cl)c2cc(Br)ccc2-n2c(SCCN)nnc21 | 34.2 |
| COC(=O)CC[C@@H]1N=C(c2ccccc2F)c2cc([N+](=O)[O-])ccc2-n2c(SCCCN(C)C)nnc21 | 15 |
| COC(=O)CC[C@@H]1N=C(c2ccccc2Cl)c2cc(Br)ccc2-n2c(SCCN3CCOCC3)nnc21 | 22.2 |
| COC(=O)CC[C@@H]1N=C(c2ccccc2Cl)c2cc(Br)ccc2-n2c(SCCCN3CCN(CCO)CC3)nnc21 | 36.6 |
| COC(=O)CC[C@@H]1N=C(c2ccccc2Cl)c2cc(Cl)ccc2-n2c(SCCN)nnc21 | 12.6 |
| COC(=O)CC[C@@H]1N=C(c2ccccc2Cl)c2cc([N+](=O)[O-])ccc2-n2c(SCCN3CCOCC3)nnc21 | 16.8 |

Let's switch to this compound now.
Recorded half-life at 0.4 mg/mL of `COC(=O)CC[C@@H]1N=C(c2ccccc2F)c2cc([N+](=O)[O-])ccc2-n2c(SCCN3CCOCC3)nnc21` , please.
19.8

---

Test system: hCMEC/D3 cells
assay: Rate of drug passing through in vitro blood-brain barrier (Transwell)
Type: in vitro ADME
stated-conditions: hCMEC/D3 monolayer, compound 0.1 mg/mL
In vitro blood-brain barrier, compound permeability at 5 min vs 80%: less than gives criterion met; not less than gives criterion not met.

These recorded examples may help you get a feel for the data.
| mol-smiles | label |
| --- | --- |
| COC(=O)CC[C@@H]1N=C(c2ccccc2F)c2cc(Br)ccc2-n2c1n[nH]c2=S | criterion met |
| COC(=O)CC[C@@H]1N=C(c2ccccc2Cl)c2cc(Cl)ccc2-n2c(SC)nnc21 | criterion met |
| COC(=O)CC[C@@H]1N=C(c2ccccc2)c2cc(Cl)ccc2-n2c(SC)nnc21 | criterion not met |
| COC(=O)CC[C@@H]1N=C(c2ccccc2Cl)c2cc(Cl)ccc2-n2c(SCCN)nnc21 | criterion not met |
| COC(=O)CC[C@@H]1N=C(c2ccccc2Cl)c2cc(Br)ccc2-n2c(SCCCN3CCN(CCO)CC3)nnc21 | criterion not met |

Record `COC(=O)CC[C@@H]1N=C(c2ccccc2Cl)c2cc(Br)ccc2-n2c(SC(C)=O)nnc21` : is its In vitro blood-brain barrier, compound permeability at 5 min strictly below 80%?
criterion not met

Record `COC(=O)CC[C@@H]1N=C(c2ccccc2F)c2cc([N+](=O)[O-])ccc2-n2c(SCCCN(C)C)nnc21` : is its In vitro blood-brain barrier, compound permeability at 5 min strictly below 80%?
criterion met

---

Some compounds, each annotated with its measured In vitro blood-brain barrier, compound permeability at 5 min.
Test system: hCMEC/D3 cells
assay: Rate of drug passing through in vitro blood-brain barrier (Transwell)
Format: in vitro ADME
stated-conditions: hCMEC/D3 monolayer, compound 0.1 mg/mL
Just so you know, I need the unit written after the number.

// known answers, use as guide
| mol-smiles | measured-target | reported-measurement |
| --- | --- | --- |
| COC(=O)CC[C@@H]1N=C(c2ccccc2Cl)c2cc([N+](=O)[O-])ccc2-n2c(SCCN)nnc21 | hCMEC/D3 cells | 84.6% |
| COC(=O)CC[C@@H]1N=C(c2ccccc2F)c2cc(Cl)ccc2-n2c(S)nnc21 | hCMEC/D3 cells | 72.2% |
| COC(=O)CC[C@@H]1N=C(c2ccccn2)c2cc(Br)ccc2-n2c(SCc3ccncc3)nnc21 | hCMEC/D3 cells | 85.6% |

Given the entry `COC(=O)CC[C@@H]1N=C(c2ccccc2F)c2cc([N+](=O)[O-])ccc2-n2c(SC)nnc21` , what In vitro blood-brain barrier, compound permeability at 5 min was observed with hCMEC/D3 cells?
58.7%

Given the entry `COC(=O)CC[C@@H]1N=C(c2ccccc2Cl)c2cc([N+](=O)[O-])ccc2-n2c(SCCN3CCOCC3)nnc21` , what In vitro blood-brain barrier, compound permeability at 5 min was observed with hCMEC/D3 cells?
77.3%

Given the entry `COC(=O)CC[C@@H]1N=C(c2ccccc2F)c2cc(Br)ccc2-n2c(S)nnc21` , what In vitro blood-brain barrier, compound permeability at 5 min was observed with hCMEC/D3 cells?
68.6%

Given the entry `COC(=O)CC[C@@H]1N=C(c2ccccc2Cl)c2cc(Cl)ccc2-n2c(Sc3cn(C)cn3)nnc21` , what In vitro blood-brain barrier, compound permeability at 5 min was observed with hCMEC/D3 cells?
76.6%

Given the entry `COC(=O)CC[C@@H]1N=C(c2ccccc2F)c2cc(Br)ccc2-n2c(SCCN3CCOCC3)nnc21` , what In vitro blood-brain barrier, compound permeability at 5 min was observed with hCMEC/D3 cells?
80.1%

Given the entry `COC(=O)CC[C@@H]1N=C(c2ccccc2Cl)c2cc(Br)ccc2-n2c(SCCN)nnc21` , what In vitro blood-brain barrier, compound permeability at 5 min was observed with hCMEC/D3 cells?
71.6%

Given the entry `CCCSc1nnc2n1-c1ccc(Cl)cc1C(c1ccccc1Cl)=N[C@H]2CCC(=O)OC` , what In vitro blood-brain barrier, compound permeability at 5 min was observed with hCMEC/D3 cells?
77.6%

Given the entry `COC(=O)CC[C@@H]1N=C(c2ccccc2Cl)c2cc([N+](=O)[O-])ccc2-n2c(SCCO)nnc21` , what In vitro blood-brain barrier, compound permeability at 5 min was observed with hCMEC/D3 cells?
85.6%

Given the entry `COC(=O)CC[C@@H]1N=C(c2ccccc2Cl)c2cc(Cl)ccc2-n2c(SCC(=O)N3CCN(C)CC3)nnc21` , what In vitro blood-brain barrier, compound permeability at 5 min was observed with hCMEC/D3 cells?
75.9%

Given the entry `COC(=O)CC[C@@H]1N=C(c2ccccc2F)c2cc(Cl)ccc2-n2c1n[nH]c2=S` , what In vitro blood-brain barrier, compound permeability at 5 min was observed with hCMEC/D3 cells?
76.8%

Given the entry `CCSc1nnc2n1-c1ccc([N+](=O)[O-])cc1C(c1ccccc1F)=N[C@H]2CCC(=O)OC` , what In vitro blood-brain barrier, compound permeability at 5 min was observed with hCMEC/D3 cells?
81.6%

Given the entry `COC(=O)CC[C@@H]1N=C(c2ccccc2Cl)c2cc(Br)ccc2-n2c(SC)nnc21` , what In vitro blood-brain barrier, compound permeability at 5 min was observed with hCMEC/D3 cells?
73.4%

Sourced from patent US20230416258A1
